# measured target: D(4) dopamine receptor (Homo sapiens, UniProt P21917)
# Sequence (P21917 whole entry): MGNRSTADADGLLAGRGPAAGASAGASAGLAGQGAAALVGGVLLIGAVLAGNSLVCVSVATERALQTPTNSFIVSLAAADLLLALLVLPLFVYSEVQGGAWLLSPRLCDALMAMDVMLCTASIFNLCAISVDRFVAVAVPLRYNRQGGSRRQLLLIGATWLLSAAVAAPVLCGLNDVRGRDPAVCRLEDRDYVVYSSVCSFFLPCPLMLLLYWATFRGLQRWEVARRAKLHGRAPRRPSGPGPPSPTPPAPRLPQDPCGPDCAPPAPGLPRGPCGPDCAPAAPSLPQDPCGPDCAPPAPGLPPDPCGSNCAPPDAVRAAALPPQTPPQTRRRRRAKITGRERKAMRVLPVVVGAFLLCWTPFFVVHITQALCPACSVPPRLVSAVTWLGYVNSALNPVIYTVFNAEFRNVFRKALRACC
# protocol summary: GPCRScan assay: inhibition of D4
# Parameters: radioligand conc. used [nm] 0.6 – 1.7, parental cells Stable HEK
# stated conditions: read-out: Ki
measured property: Ki (µM)
Entry rule: numbers only, all in µM.

## Task Recorded Ki for CNCc1ccccc1-c1csc([C@@H](C)Nc2nc(C)nc3cc(OC)c(OC)cc23)c1 [BAY-293] with D(4) dopamine receptor (Homo sapiens, UniProt P21917), please?
## Result 2.66

---

# measured target: Alpha-2B adrenergic receptor (Homo sapiens)
# Sequence (P18089 whole entry): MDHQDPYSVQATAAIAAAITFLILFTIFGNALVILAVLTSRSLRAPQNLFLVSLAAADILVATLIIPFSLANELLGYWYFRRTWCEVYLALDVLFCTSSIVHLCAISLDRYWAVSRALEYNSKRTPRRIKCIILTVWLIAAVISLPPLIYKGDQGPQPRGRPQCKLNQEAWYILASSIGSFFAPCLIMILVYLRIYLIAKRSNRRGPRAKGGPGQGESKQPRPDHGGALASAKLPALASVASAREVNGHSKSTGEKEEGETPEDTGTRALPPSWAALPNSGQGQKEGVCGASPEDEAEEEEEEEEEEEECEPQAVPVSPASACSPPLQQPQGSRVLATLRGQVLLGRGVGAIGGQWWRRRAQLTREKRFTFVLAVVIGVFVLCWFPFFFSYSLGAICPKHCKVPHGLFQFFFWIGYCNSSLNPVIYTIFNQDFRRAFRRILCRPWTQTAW
# protocol summary: GPCRScan assay: inhibition of Alpha2B
# Set-up: radioligand conc. used [nm] 1.5 – 2.0, parental cells HEKT
# stated conditions: read-out: Ki
Provide the recorded Ki for the entries that follow.
All answers are understood in µM, so give the number only.

## Task # get_value(readout= Ki, system= Alpha-2B adrenergic receptor (Homo sapiens)) for CNCc1ccccc1-c1csc([C@@H](C)Nc2nc(C)nc3cc(OC)c(OC)cc23)c1
## Result 1.23

## Task Please tell me: Ki of CNCc1ccccc1-c1csc([C@H](C)Nc2nc(C)nc3cc(OC)c(OC)cc23)c1 , system Alpha-2B adrenergic receptor (Homo sapiens)?
## Result 0.847

---

Exercise: state measured pKi for each of the molecules provided.
# measured target: UniProt:P08908
# Sequence (P08908 whole entry): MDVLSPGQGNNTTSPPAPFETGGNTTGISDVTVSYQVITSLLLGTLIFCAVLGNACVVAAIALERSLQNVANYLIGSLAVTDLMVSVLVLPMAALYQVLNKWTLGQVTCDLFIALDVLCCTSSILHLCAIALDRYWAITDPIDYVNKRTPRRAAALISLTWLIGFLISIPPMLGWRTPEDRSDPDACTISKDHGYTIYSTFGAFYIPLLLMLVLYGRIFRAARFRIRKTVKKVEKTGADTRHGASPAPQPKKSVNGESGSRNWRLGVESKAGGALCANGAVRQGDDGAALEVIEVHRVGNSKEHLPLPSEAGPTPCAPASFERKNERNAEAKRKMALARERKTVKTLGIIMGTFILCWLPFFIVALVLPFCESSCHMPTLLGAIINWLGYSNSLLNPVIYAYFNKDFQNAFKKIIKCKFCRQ
# protocol summary: GPCRScan assay: inhibition of 5-HT1A
# Design: radioligand conc. used [nm] 0.5 – 1.0, parental cells stable CHO
# stated conditions: read-out: Ki
Quick note: pKi values are minus log10 of concentrations in mol/L.

## Task Which measured pKi belongs to CNCc1ccccc1-c1csc([C@H](C)Nc2nc(C)nc3cc(OC)c(OC)cc23)c1 [BAY-294] , tested on UniProt:P08908?
## Result 6.41

## Task Entry CNCc1ccccc1-c1csc([C@@H](C)Nc2nc(C)nc3cc(OC)c(OC)cc23)c1 [BAY-293] , system UniProt:P08908: what pKi was measured?
## Result 5.44

---

# measured target: Alpha-1A adrenergic receptor (Homo sapiens, UniProt P35348)
# Sequence (P35348 whole entry): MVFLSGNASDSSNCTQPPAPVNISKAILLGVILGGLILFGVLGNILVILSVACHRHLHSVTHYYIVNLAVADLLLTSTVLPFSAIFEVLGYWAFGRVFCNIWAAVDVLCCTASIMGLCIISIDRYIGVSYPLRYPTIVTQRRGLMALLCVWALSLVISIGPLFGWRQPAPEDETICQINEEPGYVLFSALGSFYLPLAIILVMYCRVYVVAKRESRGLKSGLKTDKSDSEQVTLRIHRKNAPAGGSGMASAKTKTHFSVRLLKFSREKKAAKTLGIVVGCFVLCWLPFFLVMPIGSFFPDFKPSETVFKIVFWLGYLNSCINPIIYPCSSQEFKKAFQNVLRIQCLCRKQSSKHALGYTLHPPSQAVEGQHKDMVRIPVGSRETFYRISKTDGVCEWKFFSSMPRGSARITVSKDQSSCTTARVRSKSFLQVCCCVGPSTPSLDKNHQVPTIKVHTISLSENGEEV
# protocol summary: GPCRScan assay: inhibition of Alpha1A
# Design: radioligand conc. used [nm] 0.2 - 1.0, parental cells stable HEK
# stated conditions: read-out: Ki
measured property: Ki (nM)
Report the value in nM with no unit label.

## Task Request - read-out Ki | tested on Alpha-1A adrenergic receptor (Homo sapiens, UniProt P35348) | compound CNCc1ccccc1-c1csc([C@@H](C)Nc2nc(C)nc3cc(OC)c(OC)cc23)c1
## Result 428

## Task API: value(readout=Ki, system=Alpha-1A adrenergic receptor (Homo sapiens, UniProt P35348)) for record CNCc1ccccc1-c1csc([C@H](C)Nc2nc(C)nc3cc(OC)c(OC)cc23)c1
## Result 454

---

Exercise: state measured Ki for each of the compounds provided.
Protein target, amino acids: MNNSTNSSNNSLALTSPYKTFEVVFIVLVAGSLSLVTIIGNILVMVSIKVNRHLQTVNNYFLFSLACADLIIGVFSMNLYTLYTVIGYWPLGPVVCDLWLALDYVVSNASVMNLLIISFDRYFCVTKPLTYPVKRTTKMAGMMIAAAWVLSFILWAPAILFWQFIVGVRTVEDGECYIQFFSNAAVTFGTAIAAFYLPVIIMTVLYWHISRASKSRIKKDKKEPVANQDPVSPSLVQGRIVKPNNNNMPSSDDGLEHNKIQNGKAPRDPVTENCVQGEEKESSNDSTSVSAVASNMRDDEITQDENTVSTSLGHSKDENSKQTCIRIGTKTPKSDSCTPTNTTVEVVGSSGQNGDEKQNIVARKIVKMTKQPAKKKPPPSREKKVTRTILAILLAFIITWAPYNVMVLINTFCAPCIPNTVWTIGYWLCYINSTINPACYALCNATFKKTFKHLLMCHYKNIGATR
Just the number please, in nM, no unit attached.

## Task Bench note: what Ki did CNCc1ccccc1-c1csc([C@@H](C)Nc2nc(C)nc3cc(OC)c(OC)cc23)c1 show?
## Result 512

## Task Field request: Ki | item: CNCc1ccccc1-c1csc([C@H](C)Nc2nc(C)nc3cc(OC)c(OC)cc23)c1
## Result 1470
